B1: INTS4 (parent)
chain: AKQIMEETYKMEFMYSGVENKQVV

- Variants of: B1
- assay-info: protein stability index of a GFP-peptide fusion (GPS, HEK-293T) (PSI 1-6); higher = more stable;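 note: lentivirally expressed fusions sorted by FACS into six bins by GFP to DsRed ratio, PSI derived from sequencing read proportions per bin multiplied by bin number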
- condition-info: c terminus: a fixed tail appended
Reported protein stability index values are given for each entry in this list.
endpoint-label: protein stability index

variant_description=N20E result=2.44
variant_description=E7N result=1.9
variant_description=Y15S result=2.15
variant_description=M5S result=3.08
variant_description=K21G result=2.5
variant_description=S16L result=2.08
variant_description=Y15V result=1.69
variant_description=M11R result=3.42
variant_description=K2P result=2.62
variant_description=E12D result=2.18
variant_description=Y15N result=2.31
variant_description=V24T result=1.72
variant_description=E12Q result=2.42
variant_description=V18C result=1.92
variant_description=Y15P result=3.04
variant_description=V23I result=2.2
variant_description=M5R result=2.87
variant_description=E7A result=2.04
variant_description=K2T result=2.54
variant_description=I4D result=2.92
variant_description=G17A result=1.51
variant_description=M14V result=1.71
variant_description=I4K result=2.38
variant_description=E12R result=2.34
variant_description=I4A result=2.39
variant_description=I4C result=2.6
variant_description=K21H result=1.75
variant_description=V23T result=1.46
variant_description=T8I result=1.28
variant_description=E6T result=1.76
variant_description=E6R result=2.48
variant_description=F13R result=3.52
variant_description=T8L result=2.67
variant_description=K2V result=2.04
variant_description=Q22K result=1.47
variant_description=Y15H result=1.88
variant_description=E12S result=1.61
variant_description=F13T result=3.57
variant_description=E19Q result=1.84
variant_description=M5G result=3.53
variant_description=K2S result=2.44
variant_description=M5P result=2.54
variant_description=F13W result=1.79
variant_description=F13K result=3.12
variant_description=A1F result=1.04
variant_description=T8S result=2.39
variant_description=V24E result=1.78
variant_description=M5N result=3.75
variant_description=G17C result=2.87
variant_description=E12W result=2.48
variant_description=E6K result=1.89
variant_description=K10A result=1.91
variant_description=E19P result=1.56
variant_description=Q3G result=3.49
variant_description=V18K result=2.72
variant_description=V23S result=1.76
variant_description=F13A result=4.23
variant_description=I4G result=2.89
variant_description=K10W result=1.96
variant_description=I4L result=1.35
variant_description=K2G result=3.06
variant_description=E7C result=1.71
variant_description=E7M result=1.5
variant_description=F13C result=2.96
variant_description=V23D result=1.68
variant_description=S16H result=1.41
variant_description=Y9K result=3.57
variant_description=S16F result=3.1
variant_description=E12N result=1.81
variant_description=K2R result=1.4
variant_description=S16Y result=1.76
variant_description=Y9A result=3.9
variant_description=V18S result=2.07
variant_description=F13S result=4.24
variant_description=Q3M result=1.51
variant_description=A1S result=2.82
variant_description=Y9P result=3.78
variant_description=M14F result=1.77
variant_description=K10I result=1.92
variant_description=K10Q result=1.67
variant_description=V18R result=1.54
variant_description=T8G result=1.41
variant_description=K10E result=3.15
variant_description=K10P result=3.79
variant_description=T8V result=1.89
variant_description=K21F result=3.8
variant_description=N20T result=1.36
variant_description=S16T result=1.56
variant_description=Y9C result=2.31
variant_description=M14C result=1.98
variant_description=Q3T result=1.85

These measurements were taken from the supplement of paper PMC10567573.
